Assay: amyloid nucleation score (Sup35N fusion, yeast selection) (log enrichment); library NNK3; higher = more nucleation; inactive = no reads after selection;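 also: zero at mode of non-aggregating sequences after 7 days selection at 30°C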
Endpoint Label: amyloid nucleation score

Before answering, review these 8 worked examples.
DRGRMCMNAFPFLCWIWFHG	inactive
FCMALRKRNFGRFMSKSKEY	inactive
PKFFEAPQLQLFDAYSSMDF	inactive
AGTSKMNIYSMHAV	inactive
RSVLLKVHTWITKSCFSTGL	inactive
FFIDFVGTRCFN	inactive
VLRGHSMHRSMGLWLA	inactive
GCTDIHASEH	inactive

Quick note, amyloid nucleation score for `SCLFRILMQLSTTMNSSVFK` landed at inactive

Quick note, amyloid nucleation score for `NECLVDTA` landed at inactive

Quick note, amyloid nucleation score for `SLWNDFMCQSCLGVIVNGAA` landed at 0.253

Quick note, amyloid nucleation score for `VEWMFTEMSVCLE` landed at inactive

Quick note, amyloid nucleation score for `RYYNYVSHIPAHRAVTLSAT` landed at inactive

Quick note, amyloid nucleation score for `SGGYDQSQALNRLVGWRVYC` landed at -0.301

Quick note, amyloid nucleation score for `VFLCMGTYDTCFL` landed at 0.638

Quick note, amyloid nucleation score for `VYVRVFGLLPDDTTSSF` landed at inactive

Quick note, amyloid nucleation score for `RLDVFYEMLIMYKEQYGMVR` landed at inactive

###

Test: amyloid nucleation score (Sup35N fusion, yeast selection) (log enrichment); library NNK3; higher = more nucleation; inactive = no reads after selection
Endpoint Label: amyloid nucleation score

Before answering, review these 8 worked examples.
TPSVRRGVMGVSPELCAMVG	inactive
GTMIRQLERELSHMREVTYI	inactive
STNSRFFSAYCSVVGMRRHA	inactive
MDRIYLHISVEVSASFMSDA	inactive
RILERVATQWRYGRCPMCDR	inactive
SYSVIMNHMKRWNPGDTSKW	inactive
NLEYCSILFKRH	2
FVMFAKASRGCTVSLCVYDV	-0.37

Quick note, amyloid nucleation score for `TIHIHFVGHDVCNRVVGVHH` landed at 1.24

Quick note, amyloid nucleation score for `HSRGENR` landed at inactive

###

Assay: amyloid nucleation score (Sup35N fusion, yeast selection) (log enrichment); library NNK1; higher = more nucleation; inactive = no reads after selection
// bucketize amyloid nucleation score: LOW = under -0.3, MEDIUM = from -0.3 up to 0.3, HIGH = 0.3 and over

Input: Exercise: read the entry `ECIIYPIVMHVFVQNMM` and state which class it falls under.
Output: HIGH

Input: Exercise: read the entry `SSNFSPLTIVVYNFCI` and state which class it falls under.
Output: HIGH

Input: Exercise: read the entry `MIRFKQT` and state which class it falls under.
Output: LOW

Input: Exercise: read the entry `DDPLNVTHKVRN` and state which class it falls under.
Output: HIGH

Input: Exercise: read the entry `LCVCGPRSVVNAREDVEGLS` and state which class it falls under.
Output: HIGH

Input: Exercise: read the entry `CSYSLSRFVLIHDRIVNMVT` and state which class it falls under.
Output: HIGH

Input: Exercise: read the entry `RVDHVGRGQSREGGPDAGRV` and state which class it falls under.
Output: MEDIUM

Input: Exercise: read the entry `GHSRRLYCGLEAGARCGFSR` and state which class it falls under.
Output: LOW

Input: Exercise: read the entry `TMQFFHERGYLLKSRYAGAW` and state which class it falls under.
Output: MEDIUM

Input: Exercise: read the entry `LVYGKPVNHAEGSDDSTHNG` and state which class it falls under.
Output: MEDIUM

Input: Exercise: read the entry `AVLRRYQFVYDLSYLYEDFL` and state which class it falls under.
Output: LOW

Input: Exercise: read the entry `GSSTVNL` and state which class it falls under.
Output: LOW

Input: Exercise: read the entry `LPALKCELGAAMLSAQLMAR` and state which class it falls under.
Output: MEDIUM

Input: Exercise: read the entry `YIFWLYWRQSSSNCLGDVKW` and state which class it falls under.
Output: LOW

Data provenance is the supplement of paper PMC12042874.
